assay: Blood PK of Trehalose after IV and PO administration, with and without PO Miglustat (LC-MS/MS); type: in vivo, mouse; settings: male, C57BL6/N, mouse, whole blood; 10 g/kg trehalose PO + 150 mg/kg miglustat PO
RESULT TYPE: Tmax (min)
Response body: numeric value in min, unit text excluded.

For the molecule OC[C@H]1O[C@H](O[C@H]2O[C@H](CO)[C@@H](O)[C@H](O)[C@H]2O)[C@H](O)[C@@H](O)[C@@H]1O [Trehalose, dihydrate] , what Tmax is on record?
15

---

test: Blood PK of Trehalose after IV and PO administration, with and without PO Miglustat (LC-MS/MS); type: in vivo, mouse; settings: male, C57BL6/N, mouse, whole blood; 1 g/kg trehalose IV + 150 mg/kg miglustat PO
RESULT TYPE: Tmax

For the compound OC[C@H]1O[C@H](O[C@H]2O[C@H](CO)[C@@H](O)[C@H](O)[C@H]2O)[C@H](O)[C@@H](O)[C@@H]1O [Trehalose, dihydrate] , what Tmax is on record?
20 min

---

assay: Blood PK of Trehalose after IV and PO administration, with and without PO Miglustat (LC-MS/MS); assay type: in vivo, mouse; conditions: male, C57BL6/N, mouse, whole blood; 1 g/kg trehalose IV + 150 mg/kg miglustat PO
RESULT TYPE: Cmax

For the compound OC[C@H]1O[C@H](O[C@H]2O[C@H](CO)[C@@H](O)[C@H](O)[C@H]2O)[C@H](O)[C@@H](O)[C@@H]1O [Trehalose, dihydrate] , what Cmax is on record?
5490 µM

---

Assay: Blood PK of Trehalose after IV and PO administration, with and without PO Miglustat (LC-MS/MS)
Format: in vivo, mouse
Conditions: male, C57BL6/N, mouse, whole blood; 1 g/kg trehalose IV
Protocol: LC-MS/MS bioanalytical methodologies were developed for the analysis of Trehalose, Miglustat and glucose in mouse whole blood and brain. Blood samples were prepared as follows; 20 μL of whole blood was transferred to a 96 wellplate and diluted 1:1 with sterile distilled water. Samples were protein precipitated by addition of 160 μL of 2.5% of trichloroacetic acid (TCA). […]
RESULT TYPE: Cmax (µM)
Response body: numeric value in µM, unit text excluded.

For the compound OC[C@H]1O[C@H](O[C@H]2O[C@H](CO)[C@@H](O)[C@H](O)[C@H]2O)[C@H](O)[C@@H](O)[C@@H]1O [Trehalose, dihydrate] , what Cmax is on record?
3690

---

Assay: Blood PK of Trehalose after IV and PO administration, with and without PO Miglustat (LC-MS/MS)
Type: in vivo, mouse
Conditions: male, C57BL6/N, mouse, whole blood; 1 g/kg trehalose IV; read-out: AUC0-inf of Trehalose in blood (converted)
Procedure: LC-MS/MS bioanalytical methodologies were developed for the analysis of Trehalose, Miglustat and glucose in mouse whole blood and brain. Blood samples were prepared as follows; 20 μL of whole blood was transferred to a 96 wellplate and diluted 1:1 with sterile distilled water. Samples were protein precipitated by addition of 160 μL of 2.5% of trichloroacetic acid (TCA). […]
RESULT TYPE: AUC(0-inf)
The reply should consist of the numeric value with the unit placed after it.

For the molecule OC[C@H]1O[C@H](O[C@H]2O[C@H](CO)[C@@H](O)[C@H](O)[C@H]2O)[C@H](O)[C@@H](O)[C@@H]1O [Trehalose, dihydrate] , what AUC(0-inf) is on record?
1960 µM·h

---

test: Blood PK of Trehalose after IV and PO administration, with and without PO Miglustat (LC-MS/MS); type: in vivo, mouse; details: male, C57BL6/N, mouse, whole blood; 10 g/kg trehalose PO + 150 mg/kg miglustat PO; read-out: AUC0-inf of Trehalose in blood (converted)
RESULT TYPE: AUC(0-inf) (µM·h)
Response body: numeric value in µM·h, unit text excluded.

For the compound OC[C@H]1O[C@H](O[C@H]2O[C@H](CO)[C@@H](O)[C@H](O)[C@H]2O)[C@H](O)[C@@H](O)[C@@H]1O [Trehalose, dihydrate] , what AUC(0-inf) is on record?
307
